The origin of these recorded values is ChEMBL document CHEMBL2062377.

- Measurement notes: Drug uptake in fasted intralipid-challenged Sprague-Dawley rat jejunum at 5 mg/kg, po administered 30 mins prior to intralipid-challenge measured at 2 hrs by LC/MS analysis
- Type: ADME, organism-based
- Set-up: dose 5 mg/kg, route oral
- Condition info: read-out: Drug uptake
Measurement type: concentration at 2 h (nM)

* Cc1cc(CCC(=O)O)cc(C)c1-c1nc2ccc(C(=O)Nc3ccc(C(C)(C)C)cc3)cc2[nH]1 | 930

---

- Measurement notes: Drug uptake in fasted intralipid-challenged Sprague-Dawley rat duodenum at 5 mg/kg, po administered 30 mins prior to intralipid-challenge measured at 17 hrs by LC/MS analysis
- Assay type: ADME, organism-based
- Set-up: dose 5 mg/kg, route oral
- Condition info: read-out: Drug uptake
Measurement type: concentration at 17 h (nM)

* Cc1cc(CCC(=O)O)cc(C)c1-c1nc2ccc(C(=O)Nc3ccc(C(C)(C)C)cc3)cc2[nH]1 | 610
